Target: SARS-CoV-2 RBD extracellular domain expressed with a C-terminal mouse IgG2a (SARS-COV-2 RBD-mFc) (SARS-CoV-2)
Rule: measured Kd below 40 pM gets y; anything equal to or greater than 40 pM gets n.

INSERT INTO measurements (binder, discrete_label) VALUES
  ('mAb10964 (antibody, V domains shown) VH: QVQLQESGPGLVKPSETLSLTCTVSGGSINNYYWIWIRQPPGKGLEWIGYIYHSGSTNYNPSLKSRVTISVDTSKNQFSLKVSSVTAADTAVYYCANMVRGVYEDDYWGQGTLVTVSS VL: DIQMTQSPSSLSASVGDRVTITCRASQSISNYLNWYQQKPGKAPKLLIFAASSLRSGVPSRFSGSGSGTDFTLTISSLHPEDFATYYCQQNYNTPLTFGPGTKVDIKR', 'y'),
  ('mAb10920 (antibody, V domains shown) VH: QVQLVESGGGVVQPGRSLRLSCAASGFTFSYYGMHWVRQAPGKGLEWVAVIWYDGSNKFYADSVKGRFTISRDNSKNTLYLQMNSLRAEDTAVYYCAAARPGYYYGMDVWGQGTTVTVSS VL: DIQMTQSPSSLSASVGDRVTITCRASQGISNYLAWFQQKPGKAPNSLIYAASSLQRGVPSKFSGSGSGTDFTLTISSLQPEDFATYYCQQYNSYPRTFGQGTKVEIKR', 'n'),
  ('mAb10955 (antibody, V domains shown) VH: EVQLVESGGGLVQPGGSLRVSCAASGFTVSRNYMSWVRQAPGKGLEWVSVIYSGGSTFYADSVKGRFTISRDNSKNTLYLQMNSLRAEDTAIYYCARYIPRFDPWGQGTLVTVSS VL: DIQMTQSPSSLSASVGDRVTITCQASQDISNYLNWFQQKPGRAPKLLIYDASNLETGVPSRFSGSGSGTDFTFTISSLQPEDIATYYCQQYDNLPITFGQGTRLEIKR', 'n'),
  ('mAb10982 (antibody, V domains shown) VH: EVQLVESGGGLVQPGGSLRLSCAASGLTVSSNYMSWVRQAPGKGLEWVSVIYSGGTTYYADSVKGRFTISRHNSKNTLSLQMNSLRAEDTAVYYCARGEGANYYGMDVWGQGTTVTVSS VL: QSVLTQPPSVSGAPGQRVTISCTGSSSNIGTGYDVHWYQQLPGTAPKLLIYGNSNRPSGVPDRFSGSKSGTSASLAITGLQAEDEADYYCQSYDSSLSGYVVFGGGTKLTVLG', 'n'),
  ('mAb10939 (antibody, V domains shown) VH: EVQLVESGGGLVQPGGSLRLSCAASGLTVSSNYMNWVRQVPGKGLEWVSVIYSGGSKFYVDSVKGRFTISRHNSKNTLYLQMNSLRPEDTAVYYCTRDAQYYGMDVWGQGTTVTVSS VL: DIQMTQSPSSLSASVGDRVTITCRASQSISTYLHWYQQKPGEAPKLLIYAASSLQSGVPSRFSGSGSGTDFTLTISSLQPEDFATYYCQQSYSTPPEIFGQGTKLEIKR', 'y'),
  ('mAb10985 (antibody, V domains shown) VH: EVQLVESGGGLVQPGRSLRLSCAASGFTFDDYAMHWVRQAPGKGLEWVSGISWNRGSIGYADSVKGRFTISRDNAKNSLYLQMSSLRAEDTALYYCAKDGERWDSVVVPSARNGMDVWGQGTTVTVSS VL: QSVLTQPPSVSGAPGQRVTISCTGSSSNIGAGYDVHWYQQLPGTAPKLLIYGNSNRPSGVPDRFSGSKSGTSASLAITGLQAEDEADYYCQSYDSSLSGSYVFGTGTKVTVLG', 'y'),
  ('mAb10954 (antibody, V domains shown) VH: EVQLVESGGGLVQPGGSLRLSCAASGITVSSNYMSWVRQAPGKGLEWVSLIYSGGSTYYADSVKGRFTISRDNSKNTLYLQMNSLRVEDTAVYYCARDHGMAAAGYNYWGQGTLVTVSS VL: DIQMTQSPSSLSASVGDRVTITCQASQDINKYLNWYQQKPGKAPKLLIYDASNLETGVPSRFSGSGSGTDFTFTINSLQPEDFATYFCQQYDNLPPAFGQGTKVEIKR', 'y'),
  ('mAb10971 (antibody, V domains shown) VH: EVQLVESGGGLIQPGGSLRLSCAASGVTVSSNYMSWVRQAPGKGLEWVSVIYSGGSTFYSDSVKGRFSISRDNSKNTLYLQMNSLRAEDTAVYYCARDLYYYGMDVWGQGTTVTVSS VL: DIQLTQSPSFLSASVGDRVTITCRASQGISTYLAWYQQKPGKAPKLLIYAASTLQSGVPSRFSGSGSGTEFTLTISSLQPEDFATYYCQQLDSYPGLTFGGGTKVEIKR', 'y'),
  ('mAb10913 (antibody, V domains shown) VH: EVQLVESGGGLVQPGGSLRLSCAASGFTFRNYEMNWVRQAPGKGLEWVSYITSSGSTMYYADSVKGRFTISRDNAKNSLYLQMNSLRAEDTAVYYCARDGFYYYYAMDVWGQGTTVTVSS VL: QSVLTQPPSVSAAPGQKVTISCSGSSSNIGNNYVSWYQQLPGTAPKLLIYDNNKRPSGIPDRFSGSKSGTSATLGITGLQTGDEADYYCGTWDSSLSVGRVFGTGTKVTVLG', 'n'),
  ('mAb10938 (antibody, V domains shown) VH: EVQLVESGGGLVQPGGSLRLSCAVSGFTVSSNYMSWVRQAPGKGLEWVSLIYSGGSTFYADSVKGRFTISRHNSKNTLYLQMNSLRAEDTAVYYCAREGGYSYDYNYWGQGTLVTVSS VL: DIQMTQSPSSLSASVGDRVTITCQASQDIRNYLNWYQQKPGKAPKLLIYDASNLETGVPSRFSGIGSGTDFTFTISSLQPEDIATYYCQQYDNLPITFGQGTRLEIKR', 'y');
